Tested on: Candida krusei AR Bank #397
test.description: MIC determination by in vitro antifungal assay
Assay type: cell-based
applied.conditions: Candida strain AR Bank #397
metric.name: MIC (μg/mL^−1)
Kindly provide the numeric value in μg/mL^−1 only, without the unit symbol.

Use these answered entries as a reference point.
molecule | MIC (μg/mL^−1)
O=C(NNc1cccc(Cl)c1)c1ccccn1 | 0.12
O=C(NNc1ccc(Cl)cc1)c1ccccn1 | 0.24
COc1cccc(NNC(=O)c2ccccn2)c1 | 0.49
O=C(NNc1ccc(Cl)cc1)c1cnccn1 | 1.9
C[C@@H]1[C@H](O)[C@@H](C)/C=C/C=C/C=C/C=C/C=C/C=C/C=C/[C@H](O[C@@H]2O[C@H](C)[C@@H](O)[C@H](N)[C@@H]2O)C[C@@H]2O[C@](O)(C[C@@H](O)C[C@@H](O)[C@H](O)CC[C@@H](O)C[C@@H](O)CC(=O)O[C@H]1C)C[C@H](O)[C@H]2C(=O)O [AmB, amphotericin B, reference compound] | 0.49

# next molecule below
Query block: Which MIC value belongs to `O=C(NNc1cccc(F)c1)c1ccccn1` ?
Result block: 0.24

###

System: C. auris AR Bank #383
test.description: MIC determination by in vitro antifungal assay
Assay type: cell-based, Candida auris
applied.conditions: Candidozyma auris; C. auris AR Bank # 383 (Table 2B); read-out: MIC
metric.name: MIC (µg/mL)
Kindly provide the numeric value in µg/mL only, without the unit symbol.

Use these answered entries as a reference point.
smiles.data | MIC, µg/mL
O=C(NNc1ccc(F)cc1)c1cccc(F)n1 | 1.95
O=C(NNc1ccc(F)cc1F)c1cccc(F)n1 | 1.95
O=C(NNc1ccc(F)cc1)c1cccc(Br)n1 | 1.95

Query block: Which MIC value belongs to `COc1cccc(NNC(=O)c2cccc(F)n2)c1` ?
Result block: 1.95

Query block: Then what about the molecule `O=C(NNc1ccc(F)cc1F)c1nc(F)ccc1F` ?
Result block: 1.95

Query block: Then what about the molecule `COc1ccc(NNC(=O)c2nc(F)ccc2F)cc1` ?
Result block: 1.95

Query block: Then what about the molecule `O=C(NNc1cccc(Cl)c1)c1ccc(F)cc1F` ?
Result block: 15.6

Query block: Then what about the molecule `O=C(NNc1ccc(F)cc1F)c1ncc(F)cc1F` ?
Result block: 3.9

Query block: Then what about the molecule `O=C(NNc1ccc(F)cc1)c1ccc(Br)cn1` ?
Result block: 7.8

Query block: Then what about the molecule `O=C(NNc1ccc(F)cc1)c1ncc(F)cc1F` ?
Result block: 1.95

###

MIC values for the compounds below.
Tested on: C. albicans ATCC MYA-1237 (F)
test.description: MIC determination by in vitro antifungal assay
Assay type: cell-based, Candida albicans
applied.conditions: Candida albicans, strain F = C. albicans ATCC MYA-1237(R); read-out: MIC
Kindly provide the numeric value in µg/mL only, without the unit symbol.

Use these answered entries as a reference point.
smiles.data | value.unit | MIC
COc1ccc(NNC(=O)c2ccccn2)cc1 | µg/mL | 0.98
O=C(NNc1cc(Cl)cc(Cl)c1)c1ccc(F)cc1F | µg/mL | 15.6

Query block: Write down the reported MIC of `COc1cccc(NNC(=O)c2nc(F)ccc2F)c1` , test system: C. albicans ATCC MYA-1237 (F).
Result block: 1.95

Query block: Then what about the compound `COc1ccc(NNC(=O)c2cccc(Br)n2)cc1` ?
Result block: 0.98

Query block: Then what about the compound `COc1ccc(NNC(=O)c2ccc(F)cc2F)cc1` ?
Result block: 1.95

###

Test system: C. albicans ATCC MYA-1237 (F)
test.description: MIC determination by in vitro antifungal assay
Type: cell-based, Candida albicans
applied.conditions: Candida albicans, strain F = C. albicans ATCC MYA-1237(R); read-out: MIC
log10 MIC values for the molecules below.
Quick note: numbers are log10 of MIC, with µg/mL as the unit.

smiles.data | metric.name | measured
O=C(NNc1ccc(F)cc1)c1nc(F)ccc1F | log10 MIC | -0.01

Query block: Which log10 MIC value belongs to `COc1cccc(NNC(=O)c2ccc(F)cc2F)c1` ?
Result block: 0.59

Query block: Then what about the molecule `O=C(NNc1ccc(F)cc1)c1cccc(Br)n1` ?
Result block: 0.59

Query block: Then what about the molecule `O=C(NNc1ccc(F)cc1F)c1cccc(F)n1` ?
Result block: 0.29

Query block: Then what about the molecule `COc1cccc(NNC(=O)c2ncc(F)cc2F)c1` ?
Result block: 0.59

Query block: Then what about the molecule `O=C(NNc1cc(F)cc(F)c1)c1ccc(F)cc1F` ?
Result block: 0.89

Query block: Then what about the molecule `O=C(NNc1ccc(F)cc1F)c1ccc(F)cn1` ?
Result block: 0.29

Query block: Then what about the molecule `O=C(NNc1ccc(F)cc1)c1cnccn1` ?
Result block: -0.01

Query block: Then what about the molecule `O=C(NNc1ccc(F)cc1F)c1ccccn1` ?
Result block: -0.31

Query block: Then what about the molecule `COc1cccc(NNC(=O)c2cnccn2)c1` ?
Result block: 0.29

Query block: Then what about the molecule `O=C(NNc1cccc(Cl)c1)c1cnccn1` ?
Result block: -0.01

###

Tested on: Cryptococcus neoformans ATCC MYA-895 (M)
test.description: MIC determination by in vitro antifungal assay
Type: cell-based
applied.conditions: Cryptococcus neoformans, strain M = C. neoformans ATCC MYA-895; read-out: MIC
metric.name: MIC (µg/mL)
Kindly provide the numeric value in µg/mL only, without the unit symbol.

Use these answered entries as a reference point.
smiles.data | measured
COc1ccc(NNC(=O)c2nc(F)ccc2F)cc1 | 0.98
O=C(NNc1cc(F)cc(F)c1)c1ccc(F)cc1F | 0.49
O=C(NNc1ccc(F)cc1)c1ccccn1 | 0.24
O=C(NNc1ccc(F)cc1)c1ncc(F)cc1F | 0.49
O=C(NNc1cc(F)cc(F)c1)c1cnccn1 | 0.24

Query block: Which MIC value belongs to `O=C(NNc1cc(F)cc(F)c1)c1ccccn1` ?
Result block: 0.24

Query block: Then what about the compound `COc1ccc(NNC(=O)c2ccccn2)cc1` ?
Result block: 0.49

Query block: Then what about the compound `COc1ccc(NNC(=O)c2cnccn2)cc1` ?
Result block: 0.98

###

MIC values for the molecules below.
Tested on: C. auris AR Bank #382
test.description: MIC determination by in vitro antifungal assay
Format: cell-based, Candida auris
applied.conditions: C. auris AR Bank #382
In your response, put the unit directly after the numeric value.

Query block: Which MIC value belongs to O=C(NNc1cccc(F)c1)c1ccccn1 [Compound 2a] ?
Result block: 0.98 μg/mL^−1

Query block: Then what about the molecule COc1cccc(NNC(=O)c2ccccn2)c1 [Compound 2c] ?
Result block: 0.98 μg/mL^−1

Query block: Then what about the molecule O=C(NNc1cccc(Cl)c1)c1ccccn1 [Compound 2b] ?
Result block: 0.49 μg/mL^−1

Query block: Then what about the molecule C[C@@H]1[C@H](O)[C@@H](C)/C=C/C=C/C=C/C=C/C=C/C=C/C=C/[C@H](O[C@@H]2O[C@H](C)[C@@H](O)[C@H](N)[C@@H]2O)C[C@@H]2O[C@](O)(C[C@@H](O)C[C@@H](O)[C@H](O)CC[C@@H](O)C[C@@H](O)CC(=O)O[C@H]1C)C[C@H](O)[C@H]2C(=O)O [AmB, amphotericin B, reference compound] ?
Result block: 0.98 μg/mL^−1

Query block: Then what about the molecule O=C(NNc1ccc(Cl)cc1)c1ccccn1 [Compound 2e] ?
Result block: 3.9 μg/mL^−1

Query block: Then what about the molecule O=C(NNc1ccc(Cl)cc1)c1cnccn1 [Compound 9e] ?
Result block: 13.6 μg/mL^−1

###

System: Candida haemulonii AR Bank #395
test.description: MIC determination by in vitro antifungal assay
Assay type: cell-based
applied.conditions: Candidozyma haemuli, read-out: MIC
metric.name: MIC (µg/mL)
Kindly provide the numeric value in µg/mL only, without the unit symbol.

Use these answered entries as a reference point.
smiles.data | measured
O=C(NNc1cccc(Cl)c1)c1cnccn1 | 0.24
O=C(NNc1ccc(F)cc1F)c1cnccn1 | 1.95
COc1ccc(NNC(=O)c2ccccn2)cc1 | 0.49
O=C(NNc1cc(F)ccc1F)c1ccccn1 | 0.24
COc1cccc(NNC(=O)c2cnccn2)c1 | 0.49
COc1ccc(NNC(=O)c2cnccn2)cc1 | 0.49
O=C(NNc1cc(F)cc(F)c1)c1ccccn1 | 0.24
O=C(NNc1cc(Cl)cc(Cl)c1)c1ccccn1 | 0.24
O=C(NNc1ccc(F)cc1F)c1ccccn1 | 0.24

# next molecule below
Query block: Which MIC value belongs to `O=C(NNc1ccc(F)cc1)c1ccccn1` ?
Result block: 0.12

###

System: C. auris AR Bank #386
test.description: MIC determination by in vitro antifungal assay
Assay type: cell-based, Candida auris
applied.conditions: Candidozyma auris; C. auris AR Bank # 386 (Table 2B); read-out: MIC
metric.name: MIC (µg/mL)
Kindly provide the numeric value in µg/mL only, without the unit symbol.

smiles.data | target | value.unit | measured
O=C(NNc1ccc(F)cc1F)c1cccc(F)n1 | C. auris AR Bank #386 | µg/mL | 1.95
O=C(NNc1ccc(F)cc1)c1cccc(Br)n1 | C. auris AR Bank #386 | µg/mL | 1.95
O=C(NNc1ccc(F)cc1F)c1ncc(F)cc1F | C. auris AR Bank #386 | µg/mL | 1.95

# next molecule below
Query block: Which MIC value belongs to `O=C(NNc1ccc(F)cc1F)c1ccc(F)cn1` ?
Result block: 1.95
